Test system: Plasmodium falciparum
Assay: Antimalarial activity against chloroquine and mefloquine resistant Plasmodium falciparum RF12 assessed as reduction in parasite growth incubated for 72 hrs by [3H]-hypoxanthine incorporation assay
Assay type: functional, organism-based
Answer each item with its documented pEC50.
By convention, pEC50 is the negative base-10 log of a molar concentration.

For reference, reported pEC50 for "CC(C)(Nc1ccc(Cl)c(S(=O)(=O)N2CCOCC2)c1)C(=O)Nc1ccc(F)c(Cl)c1" stands at 9.00

The compound "O=C(CNc1ccc(Cl)c(S(=O)(=O)N2CCOCC2)c1)Nc1ccc(F)c(Cl)c1" showed pEC50 equal to 7.49

* * *

Tested on: Plasmodium falciparum
Assay: Antimalarial activity against MMV006833 resistant Plasmodium falciparum 3D7 assessed as reduction in parasite growth incubated for 72 hrs by LDH assay
Type: functional, organism-based
Conditions: 3D7, 72 h
Could you please report measured EC50 for the items listed next?
Write the value in nM as a bare number.

Note to self: EC50 recorded for "C[C@H](Nc1ccc(Cl)c(S(=O)(=O)N2CCOCC2)c1)C(=O)Nc1cncc(Cl)c1" was 16

"C[C@H](Nc1ccc(Cl)c(S(=O)(=O)N2CCOCC2)c1)C(=O)Nc1ccc(F)c(Cl)c1" has a reported EC50 of 3

Short answer for "C[C@@H](Nc1ccc(Cl)c(S(=O)(=O)N2CCOCC2)c1)C(=O)Nc1ccc(F)c(Cl)c1" : EC50 was 99

Memo: "CC(C)(Nc1ccc(Cl)c(S(=O)(=O)N2CCOCC2)c1)C(=O)Nc1ccc(F)c(Cl)c1" , reported EC50: 4

EC50 recorded for this compound, "CC(C)[C@H](Nc1ccc(Cl)c(S(=O)(=O)N2CCOCC2)c1)C(=O)Nc1ccc(F)c(Cl)c1" , is 5

EC50 reported for this compound CCC(C)[C@H](Nc1ccc(Cl)c(S(=O)(=O)N2CCOCC2)c1)C(=O)Nc1ccc(F)c(Cl)c1 (stereo partly specified) : 15

* * *

Assay: Lipophilicity, LogD of compound in 1-Octanol and PBS at pH 7.4 at 7.5 uM incubated for 2 hrs shake flask method based LC-MS/MS analysis
Assay type: physicochemical
Details: 1-octanol/PBS
ENDPOINT: logD at 2 h, 7.5 µM
API doc: respond with a numeric literal and nothing else, no unit.

Data point: "CC(C)(Nc1ccc(Cl)c(S(=O)(=O)N2CCOCC2)c1)C(=O)Nc1ccc(F)c(Cl)c1" ; logD at 2 h, 7.5 µM = 3.9

Lab book: logD at 2 h, 7.5 µM of "C[C@H](Nc1ccc(Cl)c(S(=O)(=O)N2CCOCC2)c1)C(=O)Nc1ccc(F)c(Cl)c1" noted as 3.9

Per the record, "O=C(CNc1ccc(Cl)c(S(=O)(=O)N2CCOCC2)c1)Nc1ccc(F)c(Cl)c1" has logD at 2 h, 7.5 µM of 2.2

Just so you know, measured logD at 2 h, 7.5 µM for "C[C@H](Nc1ccc(Cl)c(S(=O)(=O)N2CCOCC2)c1)C(=O)Nc1cncc(Cl)c1" came out at 3.1

Notebook: "CC(C)(Nc1ccc(Cl)c(S(=O)(=O)N2CCOCC2)c1)C(=O)Nc1cncc(Cl)c1" , logD at 2 h, 7.5 µM read as 3.2

* * *

Assay: Drug concentration in Swiss mouse plasma at 50 mg/kg,po administration measured after 15 mins by LC-MS/MS analysis
Assay type: ADME, organism-based
ENDPOINT: concentration at 0.25 h

Recorded concentration at 0.25 h (compound "CC(C)(Nc1ccc(Cl)c(S(=O)(=O)N2CCOCC2)c1)C(=O)Nc1cncc(Cl)c1" ): ~1200 nM
